# assay_method_text: qHTS Assay for Inhibitors of Hepatitis C Virus (HCV)
# applied_conditions: Huh7.5.1 HCVcc-Cre infection, luciferase reporter, 44 h; series mostly up to 41.8 µM
The whole screen tested about 340,000 compounds, of which about 12,000 (3.5%) were called active. Inconclusive results (about 18%) are left out. Calls come from the whole dose curve; as a rule, active = well fitted inhibition curve with a large enough effect; inconclusive = small, poorly fitted or top-dose-only effect, or another doubt; inactive = no such curve, though single readings can be large or run the other way. The entries come from a sample that favours actives as a whole.
Hello, when you answer, please use one of the following outcomes: active, inactive

Some solved cases for reference:
[
  {
    "compound": "CC[C@]12c3[nH]c4ccc(Cl)cc4c3CCN1C(=O)[C@@H](CC(=O)NCCCOC)C[C@@H]2C(=O)N1CCN(C(=O)c2ccco2)CC1",
    "class_assignment": "inactive"
  },
  {
    "compound": "CCOc1ccc(C(O)Cc2nc3ccccc3n2C)cc1 (stereo not given)",
    "class_assignment": "inactive"
  },
  {
    "compound": "Cc1cc(Br)ccc1NC(=O)CN(C)C(=O)CN1C(=O)NC2(CCCC2)C1=O",
    "class_assignment": "inactive"
  },
  {
    "compound": "COc1ccc(Cl)cc1NC(=O)COc1ccc2c(c1)OCO2",
    "class_assignment": "inactive"
  },
  {
    "compound": "Cc1ccc(CN2CCC(n3nccc3NC(=O)CCCc3ccccc3)CC2)o1",
    "class_assignment": "inactive"
  }
]

In: # fetch the recorded call for CCOc1ccc(C(O)Cn2c(=N)n(CCN3CCCCC3)c3ccccc32)cc1 (stereo not given) here
Out: active

In: # fetch the recorded call for `CCOc1cccc(/C=C/c2ccc3ccccc3n2)c1OC(C)=O` here
Out: active

In: # fetch the recorded call for O=C(N=C1SC2CS(=O)(=O)CC2N1c1ccccc1)c1ccccc1 (stereo not given) here
Out: inactive

In: # fetch the recorded call for `N#Cc1ccc(C2=CC(=O)C[C@H](c3ccc(Cl)cc3)C2)cc1` here
Out: inactive

In: # fetch the recorded call for `NC(=O)COC(=O)/C=C/c1ccc2ccccc2n1` here
Out: inactive
